Provenance of the data: patent US12606568B2

target: SMARCA2 (Homo sapiens, UniProt P51531); assay: SMARCA2 Western blot MV4-11 degradation; assay type: cell-based; design: SMARCA2 and SMARCA4 protein degradation in MV4-11 cells; endogenous in cells; host or cells: MV4-11; details: MV4-11 cells, 24 h; read-out: SMARCA2 MSD MV411 degradation 24 h: Mean external-Abs DC50
Sequence (P51531 whole entry): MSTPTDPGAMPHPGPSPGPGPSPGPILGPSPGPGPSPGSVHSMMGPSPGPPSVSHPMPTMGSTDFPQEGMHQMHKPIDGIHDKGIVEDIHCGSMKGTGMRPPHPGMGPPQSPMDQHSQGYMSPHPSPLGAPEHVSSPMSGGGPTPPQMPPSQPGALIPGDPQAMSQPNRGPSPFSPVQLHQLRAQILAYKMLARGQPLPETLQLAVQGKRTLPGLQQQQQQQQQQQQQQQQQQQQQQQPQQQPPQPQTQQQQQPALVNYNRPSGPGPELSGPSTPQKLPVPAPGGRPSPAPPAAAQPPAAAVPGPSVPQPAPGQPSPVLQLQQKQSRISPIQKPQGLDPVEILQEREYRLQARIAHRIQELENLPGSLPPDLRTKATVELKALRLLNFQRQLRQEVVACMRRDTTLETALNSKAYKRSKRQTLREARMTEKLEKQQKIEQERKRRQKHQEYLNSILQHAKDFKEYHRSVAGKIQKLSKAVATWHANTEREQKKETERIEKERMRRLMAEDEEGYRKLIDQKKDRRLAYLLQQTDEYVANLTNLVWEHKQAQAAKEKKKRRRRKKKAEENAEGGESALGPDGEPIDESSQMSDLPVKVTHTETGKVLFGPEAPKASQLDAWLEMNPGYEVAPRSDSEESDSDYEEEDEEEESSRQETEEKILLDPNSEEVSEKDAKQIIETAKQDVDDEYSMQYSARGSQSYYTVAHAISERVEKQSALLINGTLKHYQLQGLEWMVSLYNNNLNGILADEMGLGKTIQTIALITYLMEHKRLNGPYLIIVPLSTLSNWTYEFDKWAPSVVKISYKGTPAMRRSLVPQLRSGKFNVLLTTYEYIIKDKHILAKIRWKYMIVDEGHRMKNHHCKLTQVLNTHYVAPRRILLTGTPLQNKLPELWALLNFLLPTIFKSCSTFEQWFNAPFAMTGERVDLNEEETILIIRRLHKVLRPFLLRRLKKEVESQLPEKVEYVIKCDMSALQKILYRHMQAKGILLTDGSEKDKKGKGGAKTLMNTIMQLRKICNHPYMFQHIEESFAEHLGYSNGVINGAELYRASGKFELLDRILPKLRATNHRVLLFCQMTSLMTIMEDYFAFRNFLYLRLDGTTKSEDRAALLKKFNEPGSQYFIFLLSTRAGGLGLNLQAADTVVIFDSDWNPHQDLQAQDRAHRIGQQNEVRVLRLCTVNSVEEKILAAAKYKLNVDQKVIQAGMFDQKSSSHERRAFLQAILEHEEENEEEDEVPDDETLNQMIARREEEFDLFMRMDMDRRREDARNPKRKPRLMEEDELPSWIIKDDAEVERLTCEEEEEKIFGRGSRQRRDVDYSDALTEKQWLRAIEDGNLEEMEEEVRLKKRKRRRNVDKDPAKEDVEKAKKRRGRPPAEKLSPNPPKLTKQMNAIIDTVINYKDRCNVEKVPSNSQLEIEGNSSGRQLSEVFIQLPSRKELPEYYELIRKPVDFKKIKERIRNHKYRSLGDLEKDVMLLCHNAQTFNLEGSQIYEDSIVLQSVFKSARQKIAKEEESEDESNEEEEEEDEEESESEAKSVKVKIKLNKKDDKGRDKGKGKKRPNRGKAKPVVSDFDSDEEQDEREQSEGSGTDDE
measuredQuantity: DC50

// known answers, use as guide
Cc1ncsc1-c1ccc([C@H](C)NC(=O)[C@@H]2C[C@@H](O)CN2C(=O)[C@@H](NC(=O)[C@H]2CCC3(CC2)C[C@H](N2CCC(c4cnc(N5C6CCC5CN(c5cc(-c7ccccc7O)nnc5N)C6)nc4)CC2)C3)C(C)(C)C)cc1 (some centres unmarked) [I-16]    < 0.1 µM
Cc1ncsc1-c1ccc(C2(NC(=O)[C@@H]3C[C@@H](O)CN3C(=O)[C@@H](NC(=O)[C@H]3CC4(C3)C[C@H](N3CCC(c5cnc(N6C7CCC6CN(c6cc(-c8ccccc8O)nnc6N)C7)nc5)CC3)C4)C(C)(C)C)CC2)cc1 (single isomer, unassigned) [I-3]    < 0.1 µM
Cc1ncsc1-c1ccc([C@H](C)NC(=O)[C@@H]2C[C@@H](O)CN2C(=O)[C@@H](NC(=O)[C@H]2CC3(C2)C[C@H](N2CCC(c4ccc(N5C6CCC5CN(c5cc(-c7ccccc7O)nnc5N)C6)cc4)CC2)C3)C(C)(C)C)cn1 (single isomer, unassigned) [I-5]    0.1 to 0.5 µM
Cc1ncsc1-c1ccc(CNC(=O)[C@@H]2C[C@@H](O)CN2C(=O)[C@@H](NC(=O)C2(F)CC2)C(C)(C)C)c(OC2CCC(N3CCC(c4cnc(N5C6CC[C@@H]5CN(c5cc(-c7ccccc7O)nnc5N)C6)nc4)CC3)CC2)c1 (some centres unmarked) [I-71]    < 0.1 µM
Cc1ncsc1-c1ccc(CNC(=O)[C@@H]2C[C@@H](O)CN2C(=O)C(c2cc(N3CCC(CCCN4CCC(c5cnc(N6C7CCC6CN(c6cc(-c8ccccc8O)nnc6N)C7)nc5)CC4)CC3)no2)C(C)C)cc1 (some centres unmarked) [I-64]    < 0.1 µM
Cc1ncsc1-c1ccc(CNC(=O)[C@@H]2C[C@@H](O)CN2C(=O)[C@@H](NC(=O)CN2C3CCC2CN([C@H]2CC[C@@H](c4cnc(N5C6CCC5CN(c5cc(-c7ccccc7O)nnc5N)C6)nc4)CC2)C3)C(C)(C)C)cc1 [I-77]    < 0.1 µM
Cc1ncsc1-c1ccc(CNC(=O)[C@@H]2C[C@H](O)CN2C(=O)[C@@H](NC(=O)[C@H]2CC3(C2)C[C@H](N2CCC(c4cnc(N5C6CCC5CN(c5cc(-c7ccccc7O)nnc5N)C6)nc4)CC2)C3)C(C)(C)C)cc1 (some centres unmarked) [I-79]    > 1 µM

// Cc1nccn1-c1ccc(CNC(=O)[C@@H]2C[C@@H](O)CN2C(=O)[C@@H](NC(=O)[C@H]2CC3(C2)C[C@H](N2CCC(c4cnc(N5C6CCC5CN(c5cc(-c7ccccc7O)nnc5N)C6)nc4)CC2)C3)C(C)(C)C)cc1 (some centres unmarked) [I-34] : DC50 value = 0.1 to 0.5 µM
